System: Bacillus subtilis
Test: Antibacterial activity against Bacillus subtilis MTCC 441 after 24 hr by broth microdilution method
Assay type: functional
Details: MTCC 441, 24 h
readout.label: MIC (µg/mL)
Answers are plain numbers, in µg/mL.

Solved entries (count: 4):
1) Cc1ccc(Sc2nc3ccc(C)cc3cc2-c2c(C#N)c(N)nc(Sc3ccccc3)c2C#N)cc1 : 250
2) N#Cc1c(N)nc(Sc2ccc(Cl)cc2)c(C#N)c1-c1cc2ccccc2nc1Sc1ccc(Cl)cc1 : 250
3) O=Cc1cc2ccccc2nc1Sc1ccccc1 : 200
4) Cc1ccc(Sc2nc3ccccc3cc2-c2c(C#N)c(N)nc(Sc3ccc(Cl)cc3)c2C#N)cc1 : 200

Parameters: items (list). Returns: MIC for each item.
1. Cc1ccc(Sc2nc3ccc(C)cc3cc2-c2c(C#N)c(N)nc(Sc3ccc(C)cc3)c2C#N)cc1
2. Cc1ccc2nc(Sc3ccc(Cl)cc3)c(-c3c(C#N)c(N)nc(Sc4ccccc4)c3C#N)cc2c1

Result:
1. 100
2. 250
